Data provenance: PubChem BioAssay (NCATS)

# assay.notes: Quantitative highthroughput screen to assess conditional lethalithy of NOMO1 cells grown in RPMI1640 with dialyzed fetal bovine serum (RPMI+ds) (AID 1963877); note: nearly all actives have a fitted effect of over 30% in size
# experimental.context: NOMO1 in RPMI+dialyzed FBS viability, ATP luminescence, 48 h; series mostly up to 45.8 µM
Inconclusive results are not listed. Active and inactive are the calls of the source. Calls come from the whole dose curve; as a rule, active = well fitted cell-killing curve with a large enough effect; inconclusive = small, poorly fitted or top-dose-only effect; inactive = flat fitted curve, though single readings scatter.

compound: CCN1C[C@]2(OC(=O)c3ccccc3NC(C)=O)CC[C@H](OC)[C@@]34[C@H]5CC6[C@@H](OC)C[C@](O)(C(C[C@@H]23)[C@@H]14)[C@@]5(O)[C@@H]6OC
outcome: inactive
--
compound: C#CC1(O)CCC2C3CCC4=CC(=O)CCC4(C)C3CCC21C (centres undefined)
outcome: inactive
--
compound: COC[C@H]1OC(=O)c2coc3c2[C@@]1(C)C1=C(C3=O)[C@@H]2CC[C@H](O)[C@@]2(C)C[C@@H]1OC(C)=O
outcome: inactive
--
compound: CCOC(=O)c1c(C(C#N)=CN)c2ccc(Cl)c(Cl)c2n1C
outcome: inactive
